meta.source: patent US10206394B2

Tested on: Alopecurus myosuroides (ALOMY)
run.description: Glasshouse assay for herbicidal activity (pre- and post-emergence), percentage phytotoxicity
Assay type: in vivo
assay.context: Alopecurus myosuroides, pre-emergence, 480 h, Rate 250 g/ha; pre-emergence; visual assessment 20 DAA; 100%=total damage, 0%=no damage; read-out: Pre-emergence herbicidal activity (percentage phytotoxicity) ALOMY PRE
Below is a list of entries, each paired with its recorded pest or weed control at 250 g/ha value.
Unit % implied. Number only.

For orientation, consider the following solved cases.
Cc1cc(-c2ccc(F)cn2)cc(C)c1C1C(=O)CC(CC(=O)NCc2cccc(Br)c2)C1=O (stereo not shown) [Compound B384]
80
C#CCN(C)C(=O)CC1CC(=O)C(c2c(C)cc(-c3ncc(F)cn3)cc2C)C1=O (stereo not shown) [Compound B334]
100
Cc1cc(-c2ccc(F)cn2)cc(C)c1C1C(=O)CC(CC(=O)NCc2cccs2)C1=O (stereo not shown) [Compound B397]
70
Cc1cc(-c2ccc(Cl)cn2)cc(C)c1C1C(=O)CC(CC(=O)NCC2CC2)C1=O (stereo not shown) [Compound B362]
100
Cc1cc(-c2ncc(Cl)cn2)cc(C)c1C1C(=O)CC(CC(=O)NCc2cccc(Cl)c2)C1=O (stereo not shown) [Compound B354]
70
Cc1cc(-c2ncc(F)cc2F)cc(C)c1C1C(=O)CC(CC(=O)NO)C1=O (stereo not shown) [Compound B403]
60

Lab note: measured pest or weed control at 250 g/ha of COCC(C)(C)NC(=O)CC1CC(=O)C(c2c(C)cc(-c3ccc(F)cn3)cc2C)C1=O (stereo not shown) [Compound B389] was 90

Lab note: measured pest or weed control at 250 g/ha of Cc1cc(-c2ncc(Cl)cn2)cc(C)c1C1C(=O)CC(CC(=O)N(C)C(C)C)C1=O (stereo not shown) [Compound B351] was 100

Lab note: measured pest or weed control at 250 g/ha of Cc1cc(-c2ncc(Cl)cn2)cc(C)c1C1C(=O)CC(CC(=O)N(C)Cc2cccc(F)c2)C1=O (stereo not shown) [Compound B338] was 100

Lab note: measured pest or weed control at 250 g/ha of C#CC(C)(C)NC(=O)CC1CC(=O)C(c2c(C)cc(-c3ccc(F)cn3)cc2C)C1=O (stereo not shown) [Compound B388] was 90

---

Tested on: Alopecurus myosuroides (ALOMY)
run.description: Glasshouse assay for herbicidal activity (pre- and post-emergence), percentage phytotoxicity
Format: in vivo
assay.context: Alopecurus myosuroides, pre-emergence, 480 h, Rate 250 g/ha; pre-emergence; assessed visually 20 DAA; 100%=total damage, 0%=no damage; read-out: Pre-emergence herbicidal activity (percentage phytotoxicity) ALOMY PRE
Below is a list of entries, each paired with its recorded pest or weed control at 250 g/ha value.

For orientation, consider the following solved cases.
COCC#CC(C)(C)NC(=O)CC1CC(=O)C(c2c(C)cc(-c3ncc(Cl)cc3F)cc2C)C1=O (stereo not shown)
80%
Cc1cc(-c2ncc(Cl)cc2F)cc(C)c1C1C(=O)CC(CC(=O)NCc2cccc([N+](=O)[O-])c2)C1=O (stereo not shown)
70%
Cc1cc(-c2ncc(F)cn2)cc(C)c1C1C(=O)CC(CC(=O)NCc2cccc(Cl)c2)C1=O (stereo not shown)
90%

// switching to the query compound
Measured pest or weed control at 250 g/ha for this entry Cc1cc(C)c(C2C(=O)CC(CC(=O)NCc3ccccc3F)C2=O)c(C)c1 (stereo not shown) on Alopecurus myosuroides (ALOMY): 70%

---

Tested on: Lolium perenne (LOLPE)
run.description: Glasshouse assay for herbicidal activity (pre- and post-emergence), percentage phytotoxicity
Format: in vivo
assay.context: Lolium perenne, pre-emergence, 480 h, 250 g/ha; pre-emergence; 20 DAA; visual assessment (100%=total damage, 0%=no damage); read-out: Pre-emergence herbicidal activity (percentage phytotoxicity) LOLPE PRE
Below is a list of entries, each paired with its recorded pest or weed control at 250 g/ha value.
Phrase the answer as number then unit, nothing more needed.

For orientation, consider the following solved cases.
CCc1cc(OCC(F)(F)F)cc(C)c1C1C(=O)CC(CC(=O)N2CCOCC2)C1=O (stereo not shown) [Compound B164]
100%
C#CCCNC(=O)CC1CC(=O)C(c2c(C)cc(C)cc2C)C1=O (stereo not shown) [Compound B37]
100%

Lab note: measured pest or weed control at 250 g/ha of Cc1cc(-c2ncc(F)cn2)cc(C)c1C1C(=O)CC(CC(=O)NCC(C)C)C1=O (stereo not shown) [Compound B112] was 100%

Lab note: measured pest or weed control at 250 g/ha of COCCOCCCNC(=O)CC1CC(=O)C(c2c(C)cc(C)cc2C)C1=O (stereo not shown) [Compound B7] was 90%

---

Tested on: Lolium perenne (LOLPE)
run.description: Glasshouse assay for herbicidal activity (pre- and post-emergence), percentage phytotoxicity
Assay type: in vivo
assay.context: Lolium perenne, pre-emergence, 480 h, PRE-emergence, rate 250 g/ha, visual score 20 DAA (100%=total damage, 0%=no damage); read-out: Pre-emergence herbicidal activity (percentage phytotoxicity) LOLPE PRE
Below is a list of entries, each paired with its recorded pest or weed control at 250 g/ha value.
Unit % implied. Number only.

For orientation, consider the following solved cases.
CCc1cc(OCC(F)(F)F)cc(C)c1C1C(=O)CC(CC(=O)NCc2cccc(Cl)c2)C1=O (stereo not shown) [Compound B261]
90
Cc1cc(-c2ncc(F)cn2)cc(C)c1C1C(=O)CC(CC(=O)NCc2cccc(F)c2)C1=O (stereo not shown) [Compound B264]
90
C#CCN(C)C(=O)CC1CC(=O)C(c2c(C)cc(C)cc2CC)C1=O (stereo not shown) [Compound B260]
100

Measured pest or weed control at 250 g/ha for this entry C=C(C)CNC(=O)CC1CC(=O)C(c2c(C)cc(-c3ncc(F)cn3)cc2C)C1=O (stereo not shown) [Compound B278] on Lolium perenne (LOLPE): 100

---

Test system: Lolium perenne (LOLPE)
run.description: Glasshouse assay for herbicidal activity (pre- and post-emergence), percentage phytotoxicity
Assay type: in vivo
assay.context: Lolium perenne, pre-emergence, 480 h, 250 g/ha; pre-emergence; 20 DAA; visual assessment (100%=total damage, 0%=no damage); read-out: Pre-emergence herbicidal activity (percentage phytotoxicity) LOLPE PRE
assay.readout: pest or weed control at 250 g/ha (%)
Unit % implied. Number only.

For orientation, consider the following solved cases.
COC(=O)c1cccc(CNC(=O)CC2CC(=O)C(c3c(C)cc(C)cc3C)C2=O)c1 (stereo not shown)
0
Cc1cc(C)c(C2C(=O)CC(CC(=O)NC3(C)CCCC3)C2=O)c(C)c1 (stereo not shown)
70
Cc1cc(-c2ncc(Cl)cc2F)cc(C)c1C1C(=O)CC(CC(=O)NCCF)C1=O (stereo not shown)
100

// switching to the query compound
Lab note: measured pest or weed control at 250 g/ha of Cc1cc(-c2ncc(F)cc2F)cc(C)c1C1C(=O)CC(CC(=O)NCc2ccc(F)c(F)c2)C1=O (stereo not shown) was 90

---

Test system: Lolium perenne (LOLPE)
run.description: Glasshouse assay for herbicidal activity (pre- and post-emergence), percentage phytotoxicity
Assay type: in vivo
assay.context: Lolium perenne, pre-emergence, 480 h, 250 g/ha; pre-emergence; 20 DAA; visual assessment (100%=total damage, 0%=no damage); read-out: Pre-emergence herbicidal activity (percentage phytotoxicity) LOLPE PRE
Method: Test—Glasshouse Assay for Herbicidal Activity Seeds of a variety of monocotyledonous and dicotyledonous test plants are sown in standard soil in pots. The plants are cultivated for one day (for pre-emergence (PRE)) or for about 12 days (for post-emergence (POST)) under controlled conditions in a glasshouse (warm climate species at 24/18° C., cool climate species at 20/16° C., both at day/night; 16 hours light; 65% humidity). […]
assay.readout: pest or weed control at 250 g/ha (%)
Unit % implied. Number only.

CCC(C)NC(=O)CC1CC(=O)C(c2c(C)cc(-c3ncc(Cl)cc3F)cc2C)C1=O (centres unmarked) [Compound B119]
100
C#CC(C)(C)NC(=O)CC1CC(=O)C(c2c(C)cc(-c3ncc(Cl)cc3F)cc2C)C1=O (centres unmarked) [Compound B126]
100
Cc1cc(C)c(C2C(=O)CC(CC(=O)NC(C)CC3CCCC3)C2=O)c(C)c1 (centres unmarked) [Compound B28]
80
Cc1cc(-c2ncc(F)cc2F)cc(C)c1C1C(=O)C[C@H](CC(=O)NC(C)(C)C)C1=O (some centres unmarked) [Compound B52]
100
Cc1cc(-c2ncc(Cl)cc2F)cc(C)c1C1C(=O)CC(CC(=O)NCC2CC2)C1=O (centres unmarked) [Compound B123]
100

Lab note: measured pest or weed control at 250 g/ha of C=C(C)CNC(=O)CC1CC(=O)C(c2c(C)cc(-c3ncc(Cl)cc3F)cc2C)C1=O (centres unmarked) [Compound B94] was 100

Lab note: measured pest or weed control at 250 g/ha of CCc1cccc(C)c1C1C(=O)CC(CC(=O)N2CCOCC2)C1=O (centres unmarked) [Compound B148] was 80

Lab note: measured pest or weed control at 250 g/ha of C=CCNC(=O)CC1CC(=O)C(c2c(C)cc(-c3ncc(Cl)cc3F)cc2C)C1=O (centres unmarked) [Compound B116] was 100
